- assay_details: Apparent permeability in pig LLC-PK1 cells
- Format: ADME, cell-based, Sus scrofa
Criterion: Papp meeting or surpassing 30 ×10⁻⁶ cm/s. Met: MET. Not met: NOT MET.

# smiles_text, class_label
records = [
    ("CCn1c(-c2cnc(C)nc2)nc2c(-c3ccc4c(c3)[C@@]3(CCCN3C(=O)C3CC3)C(=O)N4)ncnc21", "NOT MET"),
    ("CCn1c(-c2cnc(C)nc2)nc2c(-c3cnc4c(c3)[C@](C)(N[C@H]3CCOC3)C(=O)N4)ncnc21", "NOT MET"),
    ("CCn1c(-c2cnc(C)nc2)nc2c(-c3ccc4c(c3)[C@](C)(N3CC(C)(OC)C3)C(=O)N4)ncnc21", "NOT MET"),
    ("CCn1c(-c2cnc(C)nc2)nc2c(-c3ccc4c(c3)[C@](C)(N[C@H]3CCOC3)C(=O)N4)ncnc21", "NOT MET"),
    ("CCn1c(-c2cnc(C)nc2)nc2c(-c3cnc4c(c3)[C@](C)(NC3CCC3)C(=O)N4)ncnc21", "NOT MET"),
    ("Cc1ncc(-c2nc3c(-c4ccc5c(c4)[C@@]4(CCCN4C(=O)C4CC4)C(=O)N5C)ncnc3n2C)cn1", "MET"),
    ("CCn1c(-c2cnc(C)nc2)nc2c(-c3cnc4c(c3)[C@](C)(N3CC(C)(OC)C3)C(=O)N4)ncnc21", "NOT MET"),
    ("Cc1ncc(-c2nc3c(-c4ccc5c(c4)[C@@]4(CCCN4C(=O)C4CC4)C(=O)N5)ncnc3n2C)cn1", "NOT MET"),
    ("CCn1c(-c2cnc(C)nc2)nc2c(-c3ccc4c(c3)[C@@]3(CCCN3C(=O)C3CC3)C(=O)N4C)ncnc21", "MET"),
    ("CCn1c(-c2cnc(C)nc2)nc2c(-c3ccc4c(c3)[C@](C)(NCC(C)(C)F)C(=O)N4)ncnc21", "NOT MET"),
    ("CCn1c(-c2cnc(C)nc2)nc2c(-c3cnc4c(c3)[C@](C)(NCC(C)(C)F)C(=O)N4)ncnc21", "NOT MET"),
]

---

- assay_details: Solubility of the compound at pH 7
- Assay type: physicochemical
- conditions_used: buffer

# smiles_text, solubility (µM)
data = [
    ("CCn1c(-c2cnc(C)nc2)nc2c(-c3cnc4c(c3)[C@](C)(NCC(C)(C)F)C(=O)N4)ncnc21", 115),
    ("CCn1c(-c2cnc(C)nc2)nc2c(-c3ccc4c(c3)[C@](C)(NCC(C)(F)F)C(=O)N4)ncnc21", 120),
    ("CCn1c(-c2cnc(C)nc2)nc2c(-c3cnc4c(c3)[C@](C)(N3CC(C)(OC)C3)C(=O)N4)ncnc21", 160),
    ("CCn1c(-c2cnc(C)nc2)nc2c(-c3ccc4c(c3)[C@](C)(N[C@H]3CCOC3)C(=O)N4)ncnc21", 180),
    ("CCn1c(-c2cnc(C)nc2)nc2c(-c3ccc4c(c3)[C@@]3(CCCN3C(=O)C3CC3)C(=O)N4C)ncnc21", 130),
    ("CCn1c(-c2cnc(C)nc2)nc2c(-c3ccc4c(c3)[C@](C)(N3CC(C)(OC)C3)C(=O)N4)ncnc21", 120),
    ("CCn1c(-c2cnc(C)nc2)nc2c(-c3cnc4c(c3)[C@](C)(N[C@H]3CCOC3)C(=O)N4)ncnc21", 150),
]
